# TARGET UNDER TEST: Full-length PRMT5 enzyme co-expressed with MEP50 (Homo sapiens (Human))
# Sequence (O14744 whole entry): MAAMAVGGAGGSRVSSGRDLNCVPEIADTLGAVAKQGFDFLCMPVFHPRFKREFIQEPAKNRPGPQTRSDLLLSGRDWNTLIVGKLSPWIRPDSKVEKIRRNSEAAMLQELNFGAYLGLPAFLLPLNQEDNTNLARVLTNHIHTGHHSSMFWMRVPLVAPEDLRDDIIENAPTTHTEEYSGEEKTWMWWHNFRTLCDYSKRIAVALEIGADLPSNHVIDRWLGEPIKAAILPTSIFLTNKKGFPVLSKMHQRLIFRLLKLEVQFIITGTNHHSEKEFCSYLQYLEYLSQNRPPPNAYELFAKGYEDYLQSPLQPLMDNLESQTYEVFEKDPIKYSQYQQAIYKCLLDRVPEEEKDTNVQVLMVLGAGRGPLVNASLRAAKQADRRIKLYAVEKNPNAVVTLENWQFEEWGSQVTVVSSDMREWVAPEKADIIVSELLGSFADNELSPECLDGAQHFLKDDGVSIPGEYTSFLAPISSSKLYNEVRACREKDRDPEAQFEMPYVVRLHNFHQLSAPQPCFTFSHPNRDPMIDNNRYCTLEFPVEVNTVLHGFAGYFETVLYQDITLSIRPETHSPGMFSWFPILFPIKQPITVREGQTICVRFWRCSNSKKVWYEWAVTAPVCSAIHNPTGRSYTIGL
# Sequence (Q9BQA1 whole entry partner): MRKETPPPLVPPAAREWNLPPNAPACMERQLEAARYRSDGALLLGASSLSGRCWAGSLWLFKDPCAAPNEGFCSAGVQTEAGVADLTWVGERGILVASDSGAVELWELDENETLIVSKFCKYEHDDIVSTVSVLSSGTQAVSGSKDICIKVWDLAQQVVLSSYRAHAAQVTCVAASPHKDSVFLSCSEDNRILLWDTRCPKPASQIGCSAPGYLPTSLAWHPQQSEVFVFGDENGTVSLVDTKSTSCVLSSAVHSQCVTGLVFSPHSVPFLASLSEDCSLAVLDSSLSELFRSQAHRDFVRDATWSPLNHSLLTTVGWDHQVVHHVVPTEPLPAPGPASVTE
# METHOD SUMMARY: Revised PRMT5 Biochemical Assay
# CONDITION DETAILS: 1 μM peptide substrate, 1 μM S-Adenosyl methionine, 4 hours at 37 degree Celsius, Transcreener EPIGEN fluorescence polarisation
TEST READOUT: pIC50
// pIC50 is dimensionless: -log10 of concentration (M)

Here are 5 compounds together with their reported answers.
>>> print(df.to_string())
                                   compound  test_readout  experimental_value
0  Cc1cccc(C(=O)NCCC(O)CN2CCc3ccccc3C2)n1 (stereo not drawn)         pIC50                4.60
1  Cc1c(C(=O)NCCC(O)CN2CCc3ccccc3C2)cnn1-c1ccccn1 (stereo not drawn)         pIC50                5.13
2  Cc1nnc(-c2ccc(C(=O)NCCC(O)CN3CCc4ccccc4C3)cc2)o1 (stereo not drawn)         pIC50                5.55
3  Cc1nonc1COc1ccc(C(=O)NCCC(O)CN2CCc3ccccc3C2)cc1 (stereo not drawn)         pIC50                5.40
4  O=C(NCCC(O)CN1CCc2ccccc2C1)c1cccnc1 (stereo not drawn)         pIC50                4.82

The compound listed as O=C(NCCC(O)CN1CCc2ccccc2C1)c1ccc([S+]([O-])C(F)(F)F)cc1 (stereo not drawn) has a reported pIC50 of 6.03

The compound listed as O=C(NCCC(O)CN1CCc2ccccc2C1)c1ccc2oc(=O)[nH]c2c1 (stereo not drawn) has a reported pIC50 of 5.36

The compound listed as O=C(NCCC(O)CN1CCc2ccccc2C1)c1ccc(N2CCOCC2)nc1 (stereo not drawn) has a reported pIC50 of 6.04
